# measurementProtocol: pKa by pH-titration method
# Format: physicochemical
# conditionsUsed: read-out: pKa
propertyLabel: pKa
Answers are plain numbers.

>  <compound>
C/C=C/C=C/C(=O)Nc1cccc(OCCN(CC)CC)c1 [Compound 17e]

>  <pKa>
7.58

$$$$

Batch request: pKa for each of the following compounds.
1. CCCCCC(=O)Nc1ccc(OCCN2CCCCC2)cc1 [Compound 24f]
2. CCCCCC(=O)Nc1cccc(OCCN(CC)CC)c1 [Compound 23e]
3. CCCCCC(=O)Nc1ccc(OCCN(CC)CC)cc1 [Compound 24e]
4. C/C=C/C=C/C(=O)Nc1ccccc1OCCN1CCCCC1 [Compound 16f]
5. CN(C)CCOc1ccccc1NC(=O)C=Cc1ccccc1
6. O=C(CCc1ccccc1)Nc1ccccc1OCCN1CCCC1 [Compound 10g]
7. CCN(CC)CCOc1ccccc1NC(=O)CCc1ccccc1 [Compound 10e]

1: 7.16; 2: 7.15; 3: 7.48; 4: 6.86; 5: 6.96; 6: 6.88; 7: 7.23

Batch request: pKa for each of the following compounds.
1. CN(C)CCOc1ccccc1NC(=O)CCc1ccccc1 [Compound 10d]
2. CCCCCC(=O)Nc1ccccc1OCCN1CCCCC1 [Compound 22f]

7.19
6.99

* * *

# system: BChE (Rattus norvegicus, UniProt Q9JKC1)
# Sequence (Q9JKC1 24-597): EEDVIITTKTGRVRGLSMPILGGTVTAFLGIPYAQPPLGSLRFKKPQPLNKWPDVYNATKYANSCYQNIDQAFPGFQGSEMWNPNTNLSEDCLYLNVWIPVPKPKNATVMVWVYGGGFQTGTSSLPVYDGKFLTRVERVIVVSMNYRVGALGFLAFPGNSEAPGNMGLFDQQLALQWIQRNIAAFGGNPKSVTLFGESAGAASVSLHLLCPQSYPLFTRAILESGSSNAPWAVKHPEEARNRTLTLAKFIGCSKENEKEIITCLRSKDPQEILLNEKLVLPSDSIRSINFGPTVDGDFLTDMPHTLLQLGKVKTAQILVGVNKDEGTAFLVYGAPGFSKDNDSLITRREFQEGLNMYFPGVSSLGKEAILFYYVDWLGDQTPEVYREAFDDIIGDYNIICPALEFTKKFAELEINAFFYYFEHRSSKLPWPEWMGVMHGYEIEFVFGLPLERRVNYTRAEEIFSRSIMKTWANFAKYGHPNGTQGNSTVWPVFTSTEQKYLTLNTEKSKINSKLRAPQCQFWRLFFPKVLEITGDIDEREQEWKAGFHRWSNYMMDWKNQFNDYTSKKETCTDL
# measurementProtocol: biochemical
# Parameters: species or system Sprague–Dawley rat
# conditionsUsed: rat serum BChE, Mean ± SD, triplicate
For each record, check the reported IC50: if it is below 20 µM write y, else write n.

Answered cases to consult:
>  <molecule>
C/C=C/C=C/C(=O)Nc1cccc(OCCN2CCCC2)c1 [Compound 17g]

>  <group>
n

$$$$
>  <molecule>
CCN(CC)CCOc1cccc(NC(=O)CCc2ccccc2)c1 [Compound 11e]

>  <group>
y

$$$$
>  <molecule>
O=C(CCc1ccccc1)Nc1ccccc1OCCN1CCCCC1 [Compound 10f]

>  <group>
y

$$$$
>  <molecule>
C/C=C/C=C/C(=O)Nc1ccccc1OCCN1CCCC1 [Compound 16g]

>  <group>
n

$$$$

Continue with the next molecule.
Problem: For the molecule CCCCCC(=O)Nc1ccccc1OCCN1CCCC1 [Compound 22g] , is IC50 under 20 µM? y

* * *

# system: AChE (Rattus norvegicus, UniProt P37136)
# Sequence (P37136 32-614): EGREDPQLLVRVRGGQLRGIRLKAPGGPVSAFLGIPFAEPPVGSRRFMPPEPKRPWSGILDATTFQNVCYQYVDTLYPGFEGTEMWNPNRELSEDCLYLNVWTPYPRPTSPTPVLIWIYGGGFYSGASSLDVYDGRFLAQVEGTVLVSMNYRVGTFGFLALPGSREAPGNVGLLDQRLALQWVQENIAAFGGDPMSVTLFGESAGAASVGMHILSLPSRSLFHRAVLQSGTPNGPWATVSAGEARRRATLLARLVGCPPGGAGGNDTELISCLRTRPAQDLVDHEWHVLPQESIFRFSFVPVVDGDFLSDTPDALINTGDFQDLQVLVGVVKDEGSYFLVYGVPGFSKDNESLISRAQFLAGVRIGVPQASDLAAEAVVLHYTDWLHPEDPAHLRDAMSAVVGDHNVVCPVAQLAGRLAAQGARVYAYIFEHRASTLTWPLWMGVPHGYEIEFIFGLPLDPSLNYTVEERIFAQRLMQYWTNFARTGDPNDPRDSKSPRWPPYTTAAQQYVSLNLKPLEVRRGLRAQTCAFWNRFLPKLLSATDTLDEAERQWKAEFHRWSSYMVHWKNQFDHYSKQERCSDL
# measurementProtocol: biochemical
# conditionsUsed: rat brain AChE, Mean ± SD, triplicate
propertyLabel: pIC50
Numbers only, as −log10 of the molar value.

Recorded results for 3 compounds are shown here.
>  <compound>
CN(C)CCOc1ccc(NC(=O)CCc2ccccc2)cc1 [Compound 12d]

>  <propertyLabel>
pIC50

>  <dataValue>
4.33

$$$$
>  <compound>
CCN(CC)CCOc1ccccc1NC(=O)C=Cc1ccccc1

>  <propertyLabel>
pIC50

>  <dataValue>
3.71

$$$$
>  <compound>
O=C(C=Cc1ccccc1)Nc1cccc(OCCN2CCCC2)c1

>  <propertyLabel>
pIC50

>  <dataValue>
5.07

$$$$

Let us examine a further case.
# return recorded pIC50 for entry CCCCCC(=O)Nc1cccc(OCCN2CCCCC2)c1 [Compound 23f] 4.12

* * *

So I've got a bunch of compounds here, and I need their Selectivity for AChE values.
# system: AChE (Rattus norvegicus, UniProt P37136)
# measurementProtocol: biochemical
# conditionsUsed: IC50 (BChE)/IC50 (AChE)
Numbers only.

Recorded results for 6 compounds are shown here.
>  <compound>
O=C(C=Cc1ccccc1)Nc1ccc(OCCN2CCCC2)cc1

>  <Selectivity for AChE>
28.6

$$$$
>  <compound>
CN(C)CCOc1ccc(NC(=O)C=Cc2ccccc2)cc1

>  <Selectivity for AChE>
22.8

$$$$
>  <compound>
C/C=C/C=C/C(=O)Nc1ccc(OCCN2CCCC2)cc1 [Compound 18g]

>  <Selectivity for AChE>
8.63

$$$$
>  <compound>
CCN(CC)CCOc1ccccc1NC(=O)C=Cc1ccccc1

>  <Selectivity for AChE>
0.04

$$$$
>  <compound>
O=C(C=Cc1ccccc1)Nc1ccccc1OCCN1CCCCC1

>  <Selectivity for AChE>
0.01

$$$$
>  <compound>
CN(C)CCOc1ccccc1NC(=O)C=Cc1ccccc1

>  <Selectivity for AChE>
0.07

$$$$

Batch request: Selectivity for AChE for each of the following compounds.
1. C/C=C/C=C/C(=O)Nc1ccc(OCCN(C)C)cc1 [Compound 18d]
2. CCCCCC(=O)Nc1cccc(OCCN2CCCC2)c1 [Compound 23g]

17.5
0.01

* * *

So I've got a bunch of compounds here, and I need their pIC50 values.
# system: BChE (Rattus norvegicus)
# measurementProtocol: biochemical
# Set-up: species or system Sprague–Dawley rat
# conditionsUsed: rat serum BChE, Mean ± SD, triplicate
Give bare numbers, as −log10 of the molar value.

Recorded results for 2 compounds are shown here.
>  <compound>
O=C(CCc1ccccc1)Nc1ccccc1OCCN1CCCC1 [Compound 10g]

>  <pIC50>
5.73

$$$$
>  <compound>
CCN(CC)CCOc1ccccc1NC(=O)CCc1ccccc1 [Compound 10e]

>  <pIC50>
4.40

$$$$

Batch request: pIC50 for each of the following compounds.
1. CCCCCC(=O)Nc1cccc(OCCN(C)C)c1 [Compound 23d]
2. O=C(C=Cc1ccccc1)Nc1cccc(OCCN2CCCC2)c1
3. CCCCCC(=O)Nc1ccc(OCCN2CCCCC2)cc1 [Compound 24f]
4. C/C=C/C=C/C(=O)Nc1cccc(OCCN2CCCCC2)c1 [Compound 17f]
5. CCCCCC(=O)Nc1ccccc1OCCN1CCCCC1 [Compound 22f]

[5.10, 4.89, 4.77, 4.47, 5.04]

* * *

# measurementProtocol: Log P by shake flask method
# Type: physicochemical
# conditionsUsed: octanol / PBS pH = 7.4, shake flask
propertyLabel: logP
Give bare numbers.

Batch request: logP for each of the following compounds.
1. O=C(CCc1ccccc1)Nc1ccc(OCCN2CCCCC2)cc1 [Compound 12f]
2. CN(C)CCOc1ccccc1NC(=O)CCc1ccccc1 [Compound 10d]
3. O=C(C=Cc1ccccc1)Nc1cccc(OCCN2CCCC2)c1 [Compound 5g]
4. CCN(CC)CCOc1ccc(NC(=O)C=Cc2ccccc2)cc1 [Compound 6e]
5. O=C(CCc1ccccc1)Nc1ccccc1OCCN1CCCCC1 [Compound 10f]
6. O=C(CCc1ccccc1)Nc1cccc(OCCN2CCCC2)c1 [Compound 11g]
7. O=C(C=Cc1ccccc1)Nc1ccccc1OCCN1CCCC1 [Compound 4g]
8. O=C(C=Cc1ccccc1)Nc1ccc(OCCN2CCCCC2)cc1 [Compound 6f]

1. 1.82
2. 2.14
3. 2.28
4. 1.22
5. 1.18
6. 2.58
7. 2.19
8. 1.4

Batch request: logP for each of the following compounds.
1. CN(C)CCOc1ccccc1NC(=O)C=Cc1ccccc1 [Compound 4d]
2. CCCCCC(=O)Nc1ccc(OCCN(CC)CC)cc1 [Compound 24e]
3. C/C=C/C=C/C(=O)Nc1ccc(OCCN2CCCC2)cc1 [Compound 18g]

[2.78, 1.1, 1.18]

* * *

# system: AChE (Rattus norvegicus)
# measurementProtocol: biochemical
# conditionsUsed: IC50 (BChE)/IC50 (AChE)
So I've got a bunch of compounds here, and I need their Selectivity for AChE values.
One number for each entry.

Recorded results for 2 compounds are shown here.
>  <compound>
CCCCCC(=O)Nc1ccc(OCCN2CCCC2)cc1 [Compound 24g]

>  <Selectivity for AChE>
0.82

$$$$
>  <compound>
O=C(CCc1ccccc1)Nc1cccc(OCCN2CCCC2)c1 [Compound 11g]

>  <Selectivity for AChE>
1.43

$$$$

Let us examine a further case.
# return recorded Selectivity for AChE for entry CN(C)CCOc1cccc(NC(=O)C=Cc2ccccc2)c1 [Compound 5d] 1.30

* * *

# measurementProtocol: pKa by pH-titration method
# Format: physicochemical
# conditionsUsed: read-out: pKa
Lab note: anything with pKa at or over 7 counts as MET; the rest go in NOT MET.

Answered cases to consult:
>  <molecule>
O=C(C=Cc1ccccc1)Nc1ccc(OCCN2CCCCC2)cc1 [Compound 6f]

>  <group>
MET

$$$$
>  <molecule>
O=C(C=Cc1ccccc1)Nc1cccc(OCCN2CCCC2)c1 [Compound 5g]

>  <group>
MET

$$$$

Test whether the molecule O=C(CCc1ccccc1)Nc1cccc(OCCN2CCCCC2)c1 [Compound 11f] records pKa of 7 or higher. NOT MET

* * *

So I've got a bunch of compounds here, and I need their pKa values.
# measurementProtocol: pKa by pH-titration method
# Type: physicochemical
# conditionsUsed: read-out: pKa
One number for each entry.

Recorded results for 4 compounds are shown here.
>  <compound>
CN(C)CCOc1cccc(NC(=O)CCc2ccccc2)c1 [Compound 11d]

>  <pKa>
6.45

$$$$
>  <compound>
CCCCCC(=O)Nc1cccc(OCCN2CCCCC2)c1 [Compound 23f]

>  <pKa>
7.32

$$$$
>  <compound>
C/C=C/C=C/C(=O)Nc1ccc(OCCN2CCCCC2)cc1 [Compound 18f]

>  <pKa>
7.06

$$$$
>  <compound>
CCN(CC)CCOc1ccc(NC(=O)CCc2ccccc2)cc1 [Compound 12e]

>  <pKa>
6.52

$$$$

Let us examine a further case.
# return recorded pKa for entry CCN(CC)CCOc1cccc(NC(=O)CCc2ccccc2)c1 [Compound 11e] 6.51

Entry source: paper PMC6010128
